Entry source: PubChem BioAssay (NCI)

test system: HOP-62 NSCLC; assay: NCI tumour cell line growth inhibition, 48 h
READOUT_TYPE: TGI

Req: Field request: TGI | item: COc1ccc(-c2ccc(C3CC(c4ccc(O)cc4)=NN3)o2)c([N+](=O)[O-])c1 (stereo unspecified)
Resp: > 100 µM

Req: Field request: TGI | item: CN(C1=NCCO1)c1cccc2ccccc12
Resp: > 10 µM

Req: Field request: TGI | item: O=C(O)CC(C(=O)O)c1ccccc1[N+](=O)[O-] (stereo unspecified)
Resp: > 100 µM

Req: Field request: TGI | item: O=c1[nH]c2ccc(C(F)(F)F)cc2nc1-c1ccccc1
Resp: > 100 µM

Req: Field request: TGI | item: CCn1c(=O)c(-c2ccn[nH]2)cc2c(C)nc(N)nc21
Resp: 5.91 µM

Req: Field request: TGI | item: O=C1c2ccccc2-c2c1c1ccccc1c(=O)n2Cc1ccco1
Resp: > 100 µM

Req: Field request: TGI | item: COc1ccc2[nH]cc(CCNC(C)=O)c2c1
Resp: > 100 µM

Req: Field request: TGI | item: O=C(Nc1ccc(S(=O)(=O)Nc2nccs2)cc1)c1cccnc1Nc1cccc(Cl)c1
Resp: 31.3 µM

Req: Field request: TGI | item: COc1ccc(C(=O)Cn2c(C(=O)c3ccc(OC)cc3)nc3ccccc32)cc1
Resp: > 100 µM

Req: Field request: TGI | item: Cc1cc2c(c3c1c1ccccc1n3C)C(=O)C=CC2=O
Resp: > 100 µM

Req: Field request: TGI | item: Cn1c(=O)oc2cc(C(=O)CSC(=S)N3CCCCCC3)ccc21
Resp: > 100 µM

###

Field: log10 TGI. Provide a value for each of the compounds that follow.
test system: T-47D breast; test: NCI tumour cell line growth inhibition, 48 h
Values reflect log10 of reported TGI (µM).

Req: Field request: log10 TGI | item: C=C1C(=O)O[C@@H]2C[C@@H]1CC[C@]1(C)O[C@H]1CC[C@@]1(C)O[C@@H]1CC[C@@]2(C)O
Resp: 1.52

Req: Field request: log10 TGI | item: CCOC(=O)c1c(C)n(Cc2ccccc2)c(=O)c2ccccc2c(=O)c2c(=O)ccc(=O)c1=2
Resp: 1.94

Req: Field request: log10 TGI | item: O=C1c2ccccc2-c2c1c1ccccc1c(=O)n2CCCNCCCn1c2c(c3ccccc3c1=O)C(=O)c1ccccc1-2
Resp: 1.44

Req: Field request: log10 TGI | item: COc1ccc(OC)c(C2CCc3nc4nc(N)nc(N)c4cc3C2)c1 (stereo not given)
Resp: 0.58

Req: Field request: log10 TGI | item: CN1CCN(Cc2ccc(-c3cc4ncnc(Nc5ccc(OCc6cccc(F)c6)c(Cl)c5)c4s3)o2)CC1
Resp: 0.96

Req: Field request: log10 TGI | item: O=C(Nc1ccc(Cl)c([N+](=O)[O-])c1)Nc1nc2ccccc2s1
Resp: 1.03

###

tested on: OVCAR-4 ovarian; assay: NCI tumour cell line growth inhibition, 48 h
Field: TGI. Provide a value for each of the molecules that follow.

Req: Field request: TGI | item: CC(C)(C)OC(=O)[N+](=N)C(=O)C1CCC(=O)N1C(=O)OCc1ccccc1 (stereo not given)
Resp: > 100 µM

Req: Field request: TGI | item: Cc1cc2c(c3c1c1ccccc1n3C)C(=O)C=CC2=O
Resp: 30.6 µM

Req: Field request: TGI | item: COC(=O)c1c[nH]cc1CCc1c[nH]cc1C(=O)OC
Resp: > 100 µM

Req: Field request: TGI | item: CC(=O)N(C)OC(=O)CC(=O)c1ccccc1
Resp: > 100 µM

Req: Field request: TGI | item: O=C1OC(c2ccco2)=N/C1=C\c1ccc(Cl)c(Cl)c1
Resp: > 100 µM

Req: Field request: TGI | item: O=C(CCN1CCN(c2cccc(Cl)c2)CC1)N1CCc2c([nH]c3ccccc23)C1c1cccnc1 (stereo not given)
Resp: 18.4 µM

Req: Field request: TGI | item: COc1cc2oc(=O)cc(C)c2cc1[N+](=O)[O-]
Resp: 84.1 µM

Req: Field request: TGI | item: C[C@]12CC[C@@H]3c4ccc(O)cc4CC[C@H]3[C@@H]1C/C(=C\c1ccc([N+](=O)[O-])cc1)C2=O
Resp: > 100 µM

Req: Field request: TGI | item: Oc1ccc2ccccc2c1C=NCCCN=Cc1c(O)ccc2ccccc12
Resp: > 100 µM

Req: Field request: TGI | item: CC(C)=CCC[C@]1(C)CC[C@]2(C)C3CCC(=C(C)C)[C@@H](CCCO)[C@]3(C)CC[C@@]2(C)C1 (stereo not given in full)
Resp: > 100 µM
